I'd be grateful if you could share measured MIC for these entries.
- Test system: Staphylococcus aureus
- Procedure Summary: Antibacterial activity against methicillin-resistant Staphylococcus aureus clinical isolate 8 incubated for 16 to 18 hrs by CLSI-based microbroth dilution method
- Type: functional
- Conditions: time 16-18 hrs

State MIC (Staphylococcus aureus) of COc1cc2c(c(O)c1C(=O)/C=C/c1ccc(OCCCC[N+](C)(C)CC(=O)N3CCOCC3)cc1)C=CC(C)(C)O2.[Br-] . 4 µg/mL

State MIC (Staphylococcus aureus) of CCCCCCNC(=O)C[N+](C)(C)CCCCCOc1ccc(/C=C/C(=O)c2c(OC)cc3c(c2O)C=CC(C)(C)O3)cc1.[Br-] . 4 µg/mL

State MIC (Staphylococcus aureus) of COc1cc2c(c(O)c1C(=O)/C=C/c1ccc(OCCCCC[N+](C)(C)CC(=O)N(C(C)C)C(C)C)cc1)C=CC(C)(C)O2.[Br-] . 4 µg/mL

State MIC (Staphylococcus aureus) of COc1cc2c(c(O)c1C(=O)/C=C/c1ccc(OCCCC[N+](C)(C)CC(=O)N(CC(C)C)CC(C)C)cc1)C=CC(C)(C)O2.[Br-] . 2 µg/mL

State MIC (Staphylococcus aureus) of COc1cc2c(c(O)c1C(=O)/C=C/c1ccc(OCCC[N+](C)(C)CC(=O)N3CCSCC3)cc1)C=CC(C)(C)O2.[Br-] . 2 µg/mL

State MIC (Staphylococcus aureus) of CCCCCNC(=O)C[N+](C)(C)CCCCCOc1ccc(/C=C/C(=O)c2c(OC)cc3c(c2O)C=CC(C)(C)O3)cc1.[Br-] . 2 µg/mL

State MIC (Staphylococcus aureus) of COc1cc2c(c(O)c1C(=O)/C=C/c1ccc(OCCC[N+](C)(C)CC(=O)N3CCOCC3)cc1)C=CC(C)(C)O2.[Br-] . 8 µg/mL
